Test name: NCI Yeast Anticancer Drug Screen. Data for the mec2-1 strain (AID 157)
Condition: S. cerevisiae mec2-1 strain, at 1.2 µM, stronger effect = higher value
This is part of a sample that, as a whole, favours compounds with a hit. Of some 79,000 tested, about 15% had one in any assay.
Assay endpoint: growth inhibition (%)
Your answer should be a plain number; it is taken to be in %.

Request: Param item = O=c1ssc(=Nc2ccccc2)n1-c1ccccc1 ; retrieve measured growth inhibition.
Response: -6

Request: Param item = Cc1cc(C)c(NC(=S)NC(=O)c2ccccc2)cc1C ; retrieve measured growth inhibition.
Response: -41

Request: Param item = Cc1nc2ccc(N=NN(C)C)cc2[nH]1 ; retrieve measured growth inhibition.
Response: 15

Request: Param item = O=C(O)CNC(=S)Nc1ccccc1 ; retrieve measured growth inhibition.
Response: -68

Request: Param item = Cc1nc(-c2cc3cc([N+](=O)[O-])ccc3oc2=O)cs1 ; retrieve measured growth inhibition.
Response: -15

Request: Param item = Cc1cccc(C(C)(C)C)c1NC(=O)C(C#N)C1=C(Cl)C(=O)c2ccccc2C1=O (configuration not stated) ; retrieve measured growth inhibition.
Response: 14

Request: Param item = CCCCCCCCCCCC1=NCCO1 ; retrieve measured growth inhibition.
Response: -6

---

Listing of entries alongside the reported growth inhibition.
Test name: NCI Yeast Anticancer Drug Screen. Data for the mgt1 strain (AID 153)
Condition: S. cerevisiae mgt1 mutant growth inhibition; at 3.7 µM; stronger effect = higher value
The panel holds about 79,000 compounds, 15% with a hit somewhere; the sample as a whole holds those more often.
Your answer should be a plain number; it is taken to be in %.

[[record]]
molecule = "COc1cc(/C=C2\\CCC/C(=C\\c3ccc(O)c(OC)c3)C2=O)ccc1O"
test_value = -1


Request: Param item = Brc1ccccc1-c1ncc(-c2ccccc2)o1 ; retrieve measured growth inhibition.
Response: 27

Request: Param item = CNCCCNc1c2ccccc2nc2cccc([N+](=O)[O-])c12 ; retrieve measured growth inhibition.
Response: 42

Request: Param item = CC(C)CN(CC(C)C)C(=O)c1ccc(Cl)c(Cl)c1 ; retrieve measured growth inhibition.
Response: 2

Request: Param item = O/N=C\c1c(O)ccc2ccccc12 ; retrieve measured growth inhibition.
Response: 1

---

Test name: NCI Yeast Anticancer Drug Screen. Data for the rad14 strain (AID 159);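 further: 0% = growth of vehicle-treated control cultures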
Condition: S. cerevisiae rad14 strain growth inhibition; at 11.0 µM; stronger effect = higher value
About 79,000 compounds went through this panel and 15% of them were active in at least one assay; those are over-represented in the sample as a whole.
Listing of entries alongside the reported growth inhibition.
Your answer should be a plain number; it is taken to be in %.

Reference set, count: 8
[[record]]
compound = "Cc1cc(NCCCCCCCCNc2cc(C)nc3cc(N)ccc23)c2ccc(N)cc2n1"
assay_endpoint = "growth inhibition"
value_unit = "%"
test_value = 87

[[record]]
compound = "Cc1nc2ccc(N=NN(C)C)cc2[nH]1"
assay_endpoint = "growth inhibition"
value_unit = "%"
test_value = 12

[[record]]
compound = "O=[N+]([O-])c1cccc2nc3ccccc3c(NCCCn3ccnc3[N+](=O)[O-])c12"
assay_endpoint = "growth inhibition"
value_unit = "%"
test_value = 95

[[record]]
compound = "O=C1OC(OC/C(Br)=C(\\Br)COC2OC(=O)C(Cl)=C2Cl)C(Cl)=C1Cl (centres undefined)"
assay_endpoint = "growth inhibition"
value_unit = "%"
test_value = 4

[[record]]
compound = "CCOC(=O)[C@H]1Nc2ccc(OC)cc2C2c3ccccc3CC21 (some centres undefined)"
assay_endpoint = "growth inhibition"
value_unit = "%"
test_value = -50

[[record]]
compound = "CC(=O)OCC1OC2OC(=O)NC2C(OC(C)=O)C1OC(C)=O (centres undefined)"
assay_endpoint = "growth inhibition"
value_unit = "%"
test_value = -3

[[record]]
compound = "O=[N+]([O-])c1ccc2c(c1)/C(=N/N=C1c3ccccc3Cc3ccccc31)c1cc([N+](=O)[O-])cc([N+](=O)[O-])c1-2"
assay_endpoint = "growth inhibition"
value_unit = "%"
test_value = 98

[[record]]
compound = "CC(=O)OC1CCC2(C)C(=CC(C3C=C4CC(OC(C)=O)CCC4(C)C4=C3C3CC5OC6(CCC(C)CO6)C(C)C5C3(C)CC4)C3=C2CCC2(C)C3CC3OC4(CCC(C)CO4)C(C)C32)C1 (centres undefined)"
assay_endpoint = "growth inhibition"
value_unit = "%"
test_value = 4


// next entry
Request: Param item = NC(=O)C(=O)NNc1ccccc1 ; retrieve measured growth inhibition.
Response: 13

---

Listing of entries alongside the reported growth inhibition.
Test name: NCI Yeast Anticancer Drug Screen. Data for the rad14 strain (AID 159);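 further: 0% = growth of vehicle-treated control cultures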
Condition: S. cerevisiae rad14 strain growth inhibition; at 1.2 µM; stronger effect = higher value
This is part of a sample that, as a whole, favours compounds with a hit. Of some 79,000 tested, about 15% had one in any assay.
Your answer should be a plain number; it is taken to be in %.

Reference set, count: 8
[[record]]
compound = "CCCCN(CCCC)CCC(O)c1cc2c(Cl)cc(Cl)cc2c2cc(C(F)(F)F)ccc12 (configuration not stated)"
value_unit = "%"
test_value = 23

[[record]]
compound = "CCCC(O)C1CC(C(C)C)CCC1C (configuration not stated)"
value_unit = "%"
test_value = -1

[[record]]
compound = "CCOC(=O)c1[nH]n(-c2ccccc2)c(=O)c1C=NC(=S)C(N)=S"
value_unit = "%"
test_value = -15

[[record]]
compound = "CCC1(OC(=O)CN2CCN(CCO)CC2)C(=O)OCc2c1cc1n(c2=O)Cc2cc3ccccc3nc2-1 (configuration not stated)"
value_unit = "%"
test_value = -13

[[record]]
compound = "c1ccc2c(c1)sc1c3cnccc3ccc21"
value_unit = "%"
test_value = 4

[[record]]
compound = "Cc1cccc[n+]1C1CCc2c(ccc3ccccc23)C1=O (configuration not stated)"
value_unit = "%"
test_value = 4

[[record]]
compound = "CCOC(=O)C(Br)C(Br)c1ccccc1Cl (configuration not stated)"
value_unit = "%"
test_value = 0

[[record]]
compound = "CC1(C)CC(=O)C(/C=N/c2nc(-c3ccccc3)cs2)=C(O)C1"
value_unit = "%"
test_value = 3


Request: Param item = COC1CCC(O)C(/C=C/[N+](=O)[O-])C1 (configuration not stated) ; retrieve measured growth inhibition.
Response: 7

Request: Param item = CC[n+]1oc(C(=O)c2ccc(Cl)cc2)c(-c2ccccc2)c1-c1ccccc1.[Cl][Fe]([Cl])([Cl])[Cl] ; retrieve measured growth inhibition.
Response: 2

Request: Param item = CCCCOP(=O)(CCCP(=O)(OCCCC)OCCCC)OCCCC ; retrieve measured growth inhibition.
Response: 0

Request: Param item = COc1cc(O)c(O)c(C(C)(C)C)c1 ; retrieve measured growth inhibition.
Response: -1

---

Test name: NCI Yeast Anticancer Drug Screen. Data for the sgs1 strain (AID 173);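 further: 0% = growth of vehicle-only control cultures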
Condition: S. cerevisiae sgs1 mutant, at 11.0 µM, stronger effect = higher value
Procedure: Growth inhibition of yeast strains with defined genetic alterations is measured as a screen for potential anti-cancer activity. Selected strains with alterations in DNA damage repair or cell cycle control were exposed to compounds and growth inhibition was measured relative to vehicle treated controls. The strain used in this assay is sgs1
This is part of a sample that, as a whole, favours compounds with a hit. Of some 79,000 tested, about 15% had one in any assay. The source made the active and inactive calls. No stated cut-off is given here; in the data, active means growth inhibition above about 70%; inactive means the rest.
Listing of entries alongside the reported growth inhibition.

Reference set, count: 2
[[record]]
compound = "O=C1/C(=C/c2ccccc2)CCCC1CN1CCCCC1 (stereo unspecified)"
test_value = "67% (inactive)"

[[record]]
compound = "CCCCOP(=O)(CCCP(=O)(OCCCC)OCCCC)OCCCC"
test_value = "0% (inactive)"


Request: Param item = COc1ccc(C(=O)C(CN(C)C)CN(C)C)cc1 ; retrieve measured growth inhibition.
Response: 26% (inactive)

---

Test name: NCI Yeast Anticancer Drug Screen. Data for the rad14 strain (AID 159);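 further: 0% = growth of vehicle-treated control cultures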
Condition: S. cerevisiae rad14 strain growth inhibition; at 11.0 µM; stronger effect = higher value
The panel holds about 79,000 compounds, 15% with a hit somewhere; the sample as a whole holds those more often.
Listing of entries alongside the reported growth inhibition.
Your answer should be a plain number; it is taken to be in %.

[[record]]
molecule = "C/C=C/SC(=Nc1ccccc1)Nc1ccccc1"
assay_endpoint = "growth inhibition"
value_unit = "%"
test_value = -5

[[record]]
molecule = "CN(C)Cc1cc(N=Nc2ccc(Cl)cc2)ccc1OC(=O)c1ccccc1"
assay_endpoint = "growth inhibition"
value_unit = "%"
test_value = 1

[[record]]
molecule = "Cn1c(=O)c2c(nc(N)n2C2OC(CO)C(O)C2O)n(C)c1=O (stereo not drawn)"
assay_endpoint = "growth inhibition"
value_unit = "%"
test_value = -6

[[record]]
molecule = "O=C(O)c1cc2ccccc2c2c1C(=O)c1ccccc1-2"
assay_endpoint = "growth inhibition"
value_unit = "%"
test_value = 43

[[record]]
molecule = "Cc1ccc2nc(-c3cccc([N+](=O)[O-])c3)oc(=O)c2c1"
assay_endpoint = "growth inhibition"
value_unit = "%"
test_value = -4

[[record]]
molecule = "COC(=O)NC1C(C)OC(OC2C/C=C(/C)C3C=CC4C(OC5CC(OC6CC(O)C(OC7CC(O)C(OC)C(C)O7)C(C)O6)C(O)C(C)O5)C(C)CC(C)C4C3(C)/C(O)=C3\\C(=O)OC4(CC(C)C(CO)=CC4/C=C\\2C)C3=O)CC1(C)[N+](=O)[O-] (stereo not drawn)"
assay_endpoint = "growth inhibition"
value_unit = "%"
test_value = 14

[[record]]
molecule = "Cc1cc(N(CCOS(C)(=O)=O)CCOS(C)(=O)=O)ccc1C=Nc1ccc(-c2nc(Cc3ccccc3)sc2C)cc1"
assay_endpoint = "growth inhibition"
value_unit = "%"
test_value = 80

[[record]]
molecule = "CCCCOP(=O)(CCCP(=O)(OCCCC)OCCCC)OCCCC"
assay_endpoint = "growth inhibition"
value_unit = "%"
test_value = 9


Request: Param item = CCOC(=O)c1ccc(NC(=O)O/N=C(/Cl)C(C)C)cc1 ; retrieve measured growth inhibition.
Response: -2
